# assay-system: human VR1 (Homo sapiens)
# Construct: expressed in transfected cells; host or cells: HEK293
# assay-info: Human VR1 functional assay (FLIPR intracellular Ca2+)
# Format: cell-based
# assay-conditions: inhibition of capsaicin response, 1 μM; read-out: h % I (1 μM)
Below: a set of entries, each annotated with reported inhibition at 1 µM.

# compound, inhibition at 1 µM (%)
measured = [
    ("Cc1nc(-c2ccc(NC(=O)CCc3ccc(C(F)(F)F)cc3)cc2C(F)(F)F)no1 [Cpd 266]", 47),
    ("O=C(CCc1ccc([S+]([O-])C(F)(F)F)cc1)Nc1ccc(-n2cnc(Cl)c2Cl)c(C(F)(F)F)c1 (centres unmarked) [Cpd 244]", 85),
    ("CC(C)(C)c1ccc(CCC(=O)Nc2cc(F)c(-c3ccccn3)c(F)c2)cc1 [Cpd 175]", 75),
    ("CC(C)(C)c1ccc(CCC(=O)Nc2ccc(-c3cccc(CO)c3)c(CO)c2)cc1 [Cpd 95]", 40),
    ("Cc1cc(NC(=O)CCc2ccc(C(C)(C)C)cc2)ccc1-c1cccnc1 [Cpd 179]", 81),
    ("Cc1cn(-c2ccc(NC(=O)CCc3ccc(S(=O)(=O)C(F)(F)F)cc3)cc2C(F)(F)F)cn1 [Cpd 209]", 100),
    ("CC(C)(C)c1ccc(CCC(=O)Nc2ccc(-n3cnc(Cl)c3Cl)c(C(F)(F)F)c2)cc1 [Cpd 212]", 101),
    ("O=C(CCc1ccc(Cl)cc1)Nc1ccc(-n2ccnc2)c(C(F)(F)F)c1 [Cpd 242]", 76),
]

====

Reported h % I (5 μM) values follow for various compounds
# assay-system: human VR1 (Homo sapiens, UniProt Q8NER1)
# Construct: expressed in transfected cells; host or cells: HEK293
# Sequence (Q8NER1 whole entry): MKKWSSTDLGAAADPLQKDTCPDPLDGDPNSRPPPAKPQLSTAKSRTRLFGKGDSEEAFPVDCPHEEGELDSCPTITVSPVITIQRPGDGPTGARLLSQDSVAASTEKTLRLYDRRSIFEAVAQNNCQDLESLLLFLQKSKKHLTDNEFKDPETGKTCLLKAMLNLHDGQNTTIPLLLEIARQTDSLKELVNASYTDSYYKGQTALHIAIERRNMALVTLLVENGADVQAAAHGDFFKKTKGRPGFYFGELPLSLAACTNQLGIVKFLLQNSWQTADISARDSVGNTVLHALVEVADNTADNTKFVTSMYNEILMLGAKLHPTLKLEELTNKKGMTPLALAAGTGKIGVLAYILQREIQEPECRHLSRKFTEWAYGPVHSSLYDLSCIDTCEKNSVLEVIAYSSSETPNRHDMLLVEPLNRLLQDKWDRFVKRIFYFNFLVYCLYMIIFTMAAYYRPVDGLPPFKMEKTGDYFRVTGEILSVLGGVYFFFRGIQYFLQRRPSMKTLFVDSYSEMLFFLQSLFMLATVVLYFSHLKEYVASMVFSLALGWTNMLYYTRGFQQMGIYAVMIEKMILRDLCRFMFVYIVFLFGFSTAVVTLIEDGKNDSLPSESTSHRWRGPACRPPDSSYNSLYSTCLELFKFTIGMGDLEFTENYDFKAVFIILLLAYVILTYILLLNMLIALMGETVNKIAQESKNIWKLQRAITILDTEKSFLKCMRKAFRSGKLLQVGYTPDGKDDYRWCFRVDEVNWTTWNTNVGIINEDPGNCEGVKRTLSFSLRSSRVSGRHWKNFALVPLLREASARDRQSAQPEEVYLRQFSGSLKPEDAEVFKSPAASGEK
# assay-info: Human VR1 functional assay (FLIPR intracellular Ca2+)
# Format: cell-based
# assay-conditions: inhibition of capsaicin response, 5 μM
property: h % I (5 μM) (%)

# compound, property, numeric-value
records = [
    ("O=C(CCc1ccc(C(F)(F)F)cc1)Nc1ccc(-c2ccncc2)c2ccccc12 [Cpd 157]", "h % I (5 μM)", 12),
    ("CC(C)(C)c1ccc(CCC(=O)Nc2cnc(-c3cccc(O)c3)cn2)cc1 [Cpd 184]", "h % I (5 μM)", 14),
    ("CC(C)(C)c1ccc(CCC(=O)Nc2ccc(-c3cccc(O)c3)cc2)cc1 [Cpd 62]", "h % I (5 μM)", 16),
    ("CC(C)(C)c1ccc(CCC(=O)Nc2cnc(-c3ccccc3O)cn2)cc1 [Cpd 183]", "h % I (5 μM)", 9),
    ("Cn1ccnc1-c1ccc(NC(=O)CCc2ccc(C(C)(C)C)cc2)cc1 [Cpd 189]", "h % I (5 μM)", 63),
]

====

# assay-system: UniProt:Q8NER1
# assay-info: Human VR1 functional assay (FLIPR intracellular Ca2+)
# assay-conditions: antagonism of capsaicin-induced Ca2+ increase; read-out: h IC50
pIC50: −log10 of the molar value.
property: pIC50

# compound, numeric-value
data = [
    ("Cc1cc(NC(=O)CCc2ccc(C(C)(C)C)cc2)cnc1-c1ccc(O)cc1", 6.90),
    ("Cc1cc(NC(=O)CCc2ccc(C(C)(C)C)cc2)cc(C)c1-c1cccc(O)c1", 6.96),
    ("O=C(/C=C/c1ccc(S(=O)(=O)C(F)(F)F)cc1)Nc1ccc(-n2cnc(Cl)c2Cl)c(C(F)(F)F)c1", 7.06),
    ("CC(C)(C)c1ccc(CCC(=O)Nc2ccc(-c3cccnc3)c(F)c2)cc1", 6.40),
    ("Cc1cn(-c2ncc(NC(=O)CCc3ccc(C(F)(F)F)cc3)cc2C)cn1", 6.79),
    ("O=C(CCc1ccc(C(F)(F)F)cc1)Nc1ccc(-c2ccc(CO)cc2)c(C(F)(F)F)c1 [Cpd 250]", 6.14),
    ("Cc1cn(-c2ccc(NC(=O)CCc3ccc([S+]([O-])C(F)(F)F)cc3)cc2C(F)(F)F)cn1 (centres unmarked)", 6.86),
    ("CC(C)(C)c1ccc(CCC(=O)Nc2ccc(-c3ccccn3)c(F)c2)cc1", 6.41),
    ("Cc1cc(NC(=O)CCc2ccc(C(C)(C)C)cc2)cc(C)c1-c1ccc(O)cc1", 6.07),
    ("O=C(CCc1ccc(C(F)(F)F)cc1)Nc1ccc(-c2ccncc2)c(C(F)(F)F)c1", 6.92),
    ("O=C(CCc1ccc(C(F)(F)F)cc1)Nc1cnc(-n2cnc(Cl)c2Cl)c(C(F)(F)F)c1", 6.14),
    ("O=C(CCc1ccc(Cl)cc1)Nc1ccc(-n2ccnc2)c(C(F)(F)F)c1", 6.40),
    ("Cc1cc(NC(=O)CCc2ccc(Cl)cc2)cnc1-n1cnc(Cl)c1Cl", 6.54),
    ("Cc1cn(-c2ccc(NC(=O)/C=C/c3ccc(S(=O)(=O)C(F)(F)F)cc3)cc2C(F)(F)F)cn1", 7.42),
    ("Cc1cc(NC(=O)CCc2ccc(C(C)(C)C)cc2)cnc1-c1cccnc1", 6.71),
    ("CC(C)(C)c1ccc(CCC(=O)Nc2ccccc2-c2cccnc2)cc1", 5.40),
    ("O=C(CCc1ccc(C(F)(F)F)cc1)Nc1ccc(-c2cccc(O)c2)c(C(F)(F)F)c1", 7.40),
]

====

# assay-system: human VR1 (Homo sapiens, UniProt Q8NER1)
# Construct: expressed in transfected cells; host or cells: HEK293
# assay-info: Human VR1 [3H]RTX binding assay
# assay-conditions: inhibition of [3H]RTX binding at 1 μM
Each entry below carries its reported h Binding % I (1 μM).
property: h Binding % I (1 μM) (%)

# compound-smiles, numeric-value
rows = [
    ("CC(C)(C)c1ccc(CCC(=O)Nc2ccc(-c3cccc(C(N)=O)c3)cn2)cc1", 1),
    ("CC(C)(C)OC(=O)NCc1cccc(-c2ccc(NC(=O)CCc3ccc(C(C)(C)C)cc3)cc2)c1", 1.1),
    ("CC(C)(C)c1ccc(CCC(=O)Nc2cccc(-c3cccnc3)c2)cc1", 1),
    ("CC(C)(C)c1ccc(CCC(=O)Nc2ccc(-c3csnn3)cc2)cc1", 62),
    ("CC(C)(C)c1ccc(CCC(=O)Nc2cccc(-c3ccc(CO)cc3)c2)cc1", 1),
    ("NC(=O)c1cccc(-c2ccc(NC(=O)/C=C/c3ccc(C(F)(F)F)cc3)cc2)c1", 1),
    ("CC(C)(C)c1ccc(CCC(=O)Nc2cccc(-c3ccccc3O)c2)cc1", 1),
    ("CC(C)(C)c1ccc(CCC(=O)Nc2ccc(-c3cccc(O)c3)cc2)cc1", 23),
    ("CC(C)(C)c1ccc(CCC(=O)Nc2ccc(-c3cccc(CO)c3)cc2)cc1", 40),
    ("CC(C)(C)c1ccc(CCC(=O)Nc2ccc(-c3ccncc3)c3ccccc23)cc1", 1),
    ("CC(=O)Nc1cccc(-c2ccc(NC(=O)CCc3ccc(C(C)(C)C)cc3)c(CO)c2)c1", 1),
    ("CC(=O)Nc1cccc(-c2ccc(NC(=O)CCc3ccc(C(C)(C)C)cc3)c(F)c2)c1", 16),
    ("CC(C)(C)c1ccc(CCC(=O)Nc2ccc(-c3ncccc3O)cc2)cc1", 34),
    ("Cn1ccnc1-c1ccc(NC(=O)CCc2ccc(C(C)(C)C)cc2)cc1", 4),
    ("CC(C)(C)c1ccc(CCC(=O)Nc2ccc(-c3cccc(NS(C)(=O)=O)c3)cc2)cc1", 41),
    ("O=C(CCc1ccc(C(F)(F)F)cc1)Nc1ccc(-c2cccc(O)c2)c2cnccc12", 77),
    ("CC(C)(C)c1ccc(CCC(=O)Nc2ccc(-c3ccncc3)c(C(=O)O)c2)cc1", 1),
    ("CNC(=O)c1cccc(-c2ccc(NC(=O)CCc3ccc(C(C)(C)C)cc3)c(C(=O)O)c2)c1", 1),
]

====

IC50 for assorted compounds
# assay-system: human VR1 (Homo sapiens)
# assay-info: Human VR1 functional assay (FLIPR intracellular Ca2+)
# assay-conditions: antagonism of capsaicin-induced Ca2+ increase; read-out: h IC50
property: IC50 (nM)

# compound, numeric-value
rows = [
    ("CC(C)(C)c1ccc(CCC(=O)Nc2ccc(-n3cnc(Cl)c3Cl)c(C(F)(F)F)c2)cc1 [Cpd 212]", 62.7),
    ("Cc1cc(NC(=O)CCc2ccc(C(C)(C)C)cc2)ccc1-c1ccc(CO)cc1 [Cpd 99]", 209),
    ("Cc1cc(NC(=O)CCc2ccc(C(F)(F)F)cc2)cnc1-n1ccnc1 [Cpd 247]", 549),
    ("O=C(CCc1ccc(C(F)(F)F)cc1)Nc1ccc(-c2ccc(O)cc2)c(C(F)(F)F)c1 [Cpd 229]", 195),
    ("O=C(CCc1ccc(C(F)(F)F)cc1)Nc1cnc(-c2ccccc2O)c(C(F)(F)F)c1 [Cpd 213]", 64.5),
    ("Cc1cc(NC(=O)CCc2ccc(C(C)(C)C)cc2)cnc1-c1ccncc1 [Cpd 165]", 73),
    ("CC(C)(C)c1ccc(CCC(=O)Nc2ccccc2-c2ccncc2)cc1 [Cpd 103]", 3520),
    ("Cc1cn(-c2ccc(NC(=O)/C=C/c3ccc(SC(F)(F)F)cc3)cc2C(F)(F)F)cn1 [Cpd 208]", 41),
    ("Cc1cc(NC(=O)CCc2ccc(C(C)(C)C)cc2)ccc1-c1cccnc1 [Cpd 179]", 266),
]
